target: Albumin (Bos taurus); experiment: Antiglycation activity in bovine serum albumin assessed as inhibition of fructosamines formation at 200 uM in presence of glucose; details: cattle
Sequence (P02769 whole entry): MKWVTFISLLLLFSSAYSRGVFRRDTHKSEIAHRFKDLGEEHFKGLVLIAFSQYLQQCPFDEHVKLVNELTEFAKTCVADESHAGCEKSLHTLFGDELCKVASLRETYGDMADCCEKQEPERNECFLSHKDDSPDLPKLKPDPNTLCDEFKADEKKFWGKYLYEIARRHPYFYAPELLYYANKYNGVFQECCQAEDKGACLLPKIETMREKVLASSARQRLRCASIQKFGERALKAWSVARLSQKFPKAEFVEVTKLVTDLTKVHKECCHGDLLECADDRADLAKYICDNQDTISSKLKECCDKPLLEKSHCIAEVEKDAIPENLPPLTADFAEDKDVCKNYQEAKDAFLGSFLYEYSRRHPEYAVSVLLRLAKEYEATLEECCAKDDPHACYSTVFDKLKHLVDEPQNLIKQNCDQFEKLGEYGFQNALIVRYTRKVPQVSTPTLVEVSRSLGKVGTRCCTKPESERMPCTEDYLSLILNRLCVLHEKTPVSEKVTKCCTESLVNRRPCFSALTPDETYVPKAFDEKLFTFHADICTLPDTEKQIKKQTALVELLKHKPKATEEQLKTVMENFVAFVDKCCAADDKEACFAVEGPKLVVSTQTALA
Quick reference for inhibition at 200 µM among some compounds
recorded_endpoint: inhibition at 200 µM (%)

> print(dat)
                            chemical.string  value.measured
1  COc1c(O)cc2c(c1O)[C@@H]1O[C@H](COC(=O)c3cccc(O)c3O)[C@@H](O)[C@H](O)[C@H]1OC2=O            26.2
2  COc1ccc(C(=O)OC[C@H]2O[C@H]3c4c(cc(O)c(OC)c4O)C(=O)O[C@@H]3[C@@H](O)[C@@H]2O)c([N+](=O)[O-])c1            17.5
3  COc1cc(C(=O)OC[C@H]2O[C@H]3c4c(cc(O)c(OC)c4O)C(=O)O[C@@H]3[C@@H](O)[C@@H]2O)ccc1O            36.5
4  COc1c(O)cc2c(c1O)[C@@H]1O[C@H](COC(=O)c3ccccc3)[C@@H](O)[C@H](O)[C@H]1OC2=O            49.2

The origin of these recorded values is ChEMBL document CHEMBL1806470.
